// provenance: ChEMBL document CHEMBL1201862

tested on: OVCAR-3; assay: NCI tumour cell line growth inhibition, 48 h
Activity calls are given as the source filed them. Rule as the data show it: active = GI50 up to about 1.1 µM and inactive = higher.
ENDPOINT: GI50

Enquiry: Tell me the measured GI50 of `Cc1nc(C)c(C(=O)NNC(N)=S)cc1C(=O)NNC(N)=S` , please.
Return: > 100 µM (inactive)

Enquiry: Tell me the measured GI50 of `CC(C)(O)CO/N=C1\C(=C2\C(=O)Nc3ccccc32)Nc2ccccc21` , please.
Return: 1.32 µM (inactive)

Enquiry: Tell me the measured GI50 of O=C(O)C1=C(C(=O)O)N(c2ccncc2)C(c2ccco2)=CC1c1ccccc1[N+](=O)[O-] (stereo not given) , please.
Return: 8.17 µM (inactive)

Enquiry: Tell me the measured GI50 of `COc1ccc2c(=O)c3ccoc3n(CC=C(C)C)c2c1` , please.
Return: 85.7 µM (inactive)

Enquiry: Tell me the measured GI50 of `O=c1[nH][nH]c(=O)n1Cc1ccccc1` , please.
Return: > 100 µM (inactive)

Enquiry: Tell me the measured GI50 of `COC(=O)n1c(C[P+](c2ccccc2)(c2ccccc2)c2ccccc2)cc2ccccc21` , please.
Return: 1.01 µM (active)

Enquiry: Tell me the measured GI50 of `O=Cc1cc(C(=O)OCc2ccccc2)n(S(=O)(=O)c2ccccc2)c1` , please.
Return: 18.7 µM (inactive)

Enquiry: Tell me the measured GI50 of CCC(C)C(C(=O)N/N=C1/SCC(=O)N1c1ccccc1)C(=O)N/N=C1/SCC(=O)N1c1ccccc1 (stereo not given) , please.
Return: 28.6 µM (inactive)

Enquiry: Tell me the measured GI50 of COc1ccc2c3c1C(=O)CCC3CO2 (stereo not given) , please.
Return: > 100 µM (inactive)

Enquiry: Tell me the measured GI50 of `CCOP(=O)(Nc1ccccc1P(=O)(OCC)OCC)OCC` , please.
Return: > 100 µM (inactive)

====

tested on: SF-295; experiment: NCI tumour cell line growth inhibition, 48 h
Calls of active or inactive are those of the source. Cut-off read from the data, not from the text of the source: active = GI50 up to about 1.1 µM and inactive = higher.
Exercise: state measured GI50 for each of the compounds provided.

Enquiry: Under SF-295: GI50 value of `CCCCCCCCCCCCc1ccc(S(=O)(=O)O)cc1` ?
Return: > 100 µM (inactive)

Enquiry: Under SF-295: GI50 value of COC1(OC)C2(Cl)C(Cl)=C(Cl)C1(Cl)C1C2C2CC1(C(=O)O)c1ccccc12 (stereo not drawn) ?
Return: 25.4 µM (inactive)

Enquiry: Under SF-295: GI50 value of COc1ccc2cc1Oc1ccc(cc1)C[C@H]1c3cc(c(OC)cc3CCN1C)Oc1c(O)c(OC)cc3c1[C@H](C2)N(C)CC3 [FANGCHINOLINE] ?
Return: 16.9 µM (inactive)

Enquiry: Under SF-295: GI50 value of CCOC(=O)CC1Nc2ccccc2C12CCc1c([nH]c3ccccc13)C2C(=O)OCC (stereo not drawn) ?
Return: 3.61 µM (inactive)

Enquiry: Under SF-295: GI50 value of `NC(=S)N/N=C1\CCc2ccccc2C1` ?
Return: > 100 µM (inactive)

Enquiry: Under SF-295: GI50 value of `COc1ccc(N/N=C2\C3=C(CCC(C)(C)O3)C(=O)c3ccccc32)cc1` ?
Return: 14.8 µM (inactive)

Enquiry: Under SF-295: GI50 value of Cc1ccc(NC(=O)C2C(=O)N(c3ccc(C)c(C)c3)C(=O)/C2=N/O)cc1C (stereo not drawn) ?
Return: > 100 µM (inactive)

Enquiry: Under SF-295: GI50 value of CC1(C)O[C@@H](CO)[C@H]([C@@]23OC[C@H]4OC(C)(C)OC4[C@@H]2OC(C)(C)O3)O1 (stereo partly drawn) ?
Return: > 100 µM (inactive)

Enquiry: Under SF-295: GI50 value of C#CCN(N=O)C(=O)NCCCCC(NC(=O)OCc1ccccc1)C(=O)OCc1ccccc1 (stereo not drawn) ?
Return: > 100 µM (inactive)

Enquiry: Under SF-295: GI50 value of C=C(C)[C@@H]1CC[C@@]2(C)[C@H]1[C@H]1CCC3[C@@]4(C)CC[C@H](O)C(C)(C)[C@@H]4CC[C@@]3(C)[C@]1(C)C[C@@H]2O (stereo partly drawn) [CALENDULADIOL] ?
Return: 23.7 µM (inactive)

Enquiry: Under SF-295: GI50 value of `CCCc1cc(O)c2c(C)c3[nH]c4ccc(Cl)cc4c3c(C)c2n1` ?
Return: 2.36 µM (inactive)

Enquiry: Under SF-295: GI50 value of `CC1(C)C(=NN=C(N)N)C(C)(C)C1=NN=C(N)N` ?
Return: > 100 µM (inactive)

Enquiry: Under SF-295: GI50 value of `O=c1oc2ccccc2c(Nc2ccc3c(c2)S(=O)(=O)c2ccccc2O3)c1[N+](=O)[O-]` ?
Return: 24.8 µM (inactive)

Enquiry: Under SF-295: GI50 value of `O=C(Nc1nncs1)NS(=O)(=O)n1c(=S)sc2ccccc21` ?
Return: > 100 µM (inactive)

Enquiry: Under SF-295: GI50 value of `C/C(CN1C(=O)c2ccccc2C1=O)=N\NS(C)(=O)=O` ?
Return: > 100 µM (inactive)

Enquiry: Under SF-295: GI50 value of `Cc1ccc(NC2=NCCO2)c2c1CCC2` ?
Return: > 100 µM (inactive)

Enquiry: Under SF-295: GI50 value of `CC(C)(C)c1cc2c(OP(c3ccccc3)c3ccccc3)c(c1)Cc1cc(C(C)(C)C)cc(c1OP(c1ccccc1)c1ccccc1)Cc1cc(C(C)(C)C)cc(c1OP(c1ccccc1)c1ccccc1)Cc1cc(C(C)(C)C)cc(c1OP(c1ccccc1)c1ccccc1)C2` ?
Return: > 5 µM (inactive)

Enquiry: Under SF-295: GI50 value of `CCOP(=O)(/C=C\n1cnc2c(=O)n(C(C)=O)c(N)nc21)OCC` ?
Return: > 100 µM (inactive)

====

test system: HCC 2998; test: NCI tumour cell line growth inhibition, 48 h
Calls of active or inactive are those of the source. Cut-off read from the data, not from the text of the source: active = GI50 up to about 1.1 µM and inactive = higher.
Exercise: state measured GI50 for each of the compounds provided.

Enquiry: Under HCC 2998: GI50 value of CC1(C)O[C@@H]2C[C@H]3[C@@H]4C[C@H](F)C5=CC(=O)C=C[C@]5(C)[C@@]4(F)[C@@H](O)C[C@]3(C)[C@]2(C(=O)CO)O1 [FLUOCINOLONE ACETONIDE] ?
Return: > 100 µM (inactive)

Enquiry: Under HCC 2998: GI50 value of `NC(=S)N/N=C1\CCc2ccccc2C1` ?
Return: > 100 µM (inactive)

Enquiry: Under HCC 2998: GI50 value of CC(C)(C)OC(=O)NC(CO)c1cccc(OCc2ccccc2)c1 (stereo not given) ?
Return: > 100 µM (inactive)

Enquiry: Under HCC 2998: GI50 value of `CC1(C)C(=NN=C(N)N)C(C)(C)C1=NN=C(N)N` ?
Return: > 100 µM (inactive)

Enquiry: Under HCC 2998: GI50 value of CCOC(=O)C(N)CSC(=O)NC (stereo not given) ?
Return: 271 µM (inactive)

Enquiry: Under HCC 2998: GI50 value of Cc1ccc(NC(=O)C2C(=O)N(c3ccc(C)c(C)c3)C(=O)/C2=N/O)cc1C (stereo not given) ?
Return: > 100 µM (inactive)

Enquiry: Under HCC 2998: GI50 value of `C#CC[C@@]12CC(=O)C[C@@H]1CCC1(C2)OCCO1.C#CC[C@]12CC(=O)CC[C@H]1CC(=O)C2` ?
Return: > 100 µM (inactive)

Enquiry: Under HCC 2998: GI50 value of COC(=O)C1(CCCCl)CCCN1C(=O)OC(C)(C)C (stereo not given) ?
Return: > 100 µM (inactive)

Enquiry: Under HCC 2998: GI50 value of `COc1ccc2c(c1OC)C1=C(C2=O)c2cc3c(cc2CCN1)OCO3` ?
Return: 32.1 µM (inactive)

Enquiry: Under HCC 2998: GI50 value of `N#CC(=N)c1ncn(CCO)c1NC(=O)C(F)(F)F` ?
Return: > 100 µM (inactive)

====

tested on: MDA-MB-435; assay: NCI tumour cell line growth inhibition, 48 h
Activity calls are given as the source filed them. No stated cut-off is given here; in the data, active = GI50 up to about 1.1 µM and inactive = higher. Peptide text beside a SMILES is read from it. * marks the point of attachment. Boc = CC(C)(C)OC(=O)*
Assign a class; possible classes are yes = active, no = inactive

Enquiry: In this assay, the call recorded for `Cc1nc(O)c(O)c(CN2CCCCC2)n1` was what?
Return: no

Enquiry: In this assay, the call recorded for `O=c1[nH]c(=O)n(COCc2ccccc2)c2ccc(Br)cc12` was what?
Return: no

Enquiry: In this assay, the call recorded for CSCCC(NC(=O)C(CC(C)C)NC(=O)CNC(=O)OC(C)(C)C)C(=O)N(C)C (stereo not drawn) (Boc-Gly-Leu-Met-NMe2; configuration not given here) was what?
Return: no

Enquiry: In this assay, the call recorded for `COc1ccc2c(c1)C1=NCCN(C)c3ccc([N+](=O)[O-])c(c31)N2` was what?
Return: yes

Enquiry: In this assay, the call recorded for Cc1c(O)c(OC2OC(CO)C(O)C(O)C2O)cc2c1C=C[C@@H]1[C@@]2(C)C(=O)C[C@]2(C)[C@@H]([C@@](C)(O)C(O)/C=C/C(C)(C)O)[C@H](O)C[C@@]12C (some centres undefined) was what?
Return: no

Enquiry: In this assay, the call recorded for `[N-]=[N+]=Nc1c(C=O)c(=O)n2c3c(cccc13)CCC2` was what?
Return: no

Enquiry: In this assay, the call recorded for `CN1CC=C(c2cccn2C)CC1` was what?
Return: no

Enquiry: In this assay, the call recorded for `Oc1ncnc2c1nnn2CCCCCCCCCCCCn1nnc2c(O)ncnc21` was what?
Return: no

Enquiry: In this assay, the call recorded for `C=C(C(=O)OC)c1cc2ccccc2n1S(=O)(=O)c1ccccc1` was what?
Return: no
